# measured-target: PRPS1; also: reference of the scale not given here
# assay-comment: pooled miR-30 sensor sort-seq; sequence = guide strand
# assay-setup: shRNA
Label Condition met for high-side sensor-assay potency score (higher = more potent) (at or above -0.8) and Condition not met for low-side sensor-assay potency score (higher = more potent) (below it).

> print(dat)
           chain.sequence  measured.target     assigned.class
1  TTATCTTTCTTATCCTGCCGGG            PRPS1      Condition met
2  TTTGCAACAAGCTTGGCTGAGA            PRPS1      Condition met
3  TGATAATATGATCTGCACCTGC            PRPS1      Condition met
4  TACACTTTCACCAATTTCCACA            PRPS1      Condition met
5  TAAATTGTCATTGATTTCGCCA            PRPS1      Condition met
6  TATTGGTGACTACTACTGCCTC            PRPS1  Condition not met
